Entry source: ChEMBL document CHEMBL4354801

- study.system: Serine/threonine-protein kinase B-raf (Homo sapiens, UniProt P15056, V600E)
- Sequence (P15056 2-766 V600E limits assumed): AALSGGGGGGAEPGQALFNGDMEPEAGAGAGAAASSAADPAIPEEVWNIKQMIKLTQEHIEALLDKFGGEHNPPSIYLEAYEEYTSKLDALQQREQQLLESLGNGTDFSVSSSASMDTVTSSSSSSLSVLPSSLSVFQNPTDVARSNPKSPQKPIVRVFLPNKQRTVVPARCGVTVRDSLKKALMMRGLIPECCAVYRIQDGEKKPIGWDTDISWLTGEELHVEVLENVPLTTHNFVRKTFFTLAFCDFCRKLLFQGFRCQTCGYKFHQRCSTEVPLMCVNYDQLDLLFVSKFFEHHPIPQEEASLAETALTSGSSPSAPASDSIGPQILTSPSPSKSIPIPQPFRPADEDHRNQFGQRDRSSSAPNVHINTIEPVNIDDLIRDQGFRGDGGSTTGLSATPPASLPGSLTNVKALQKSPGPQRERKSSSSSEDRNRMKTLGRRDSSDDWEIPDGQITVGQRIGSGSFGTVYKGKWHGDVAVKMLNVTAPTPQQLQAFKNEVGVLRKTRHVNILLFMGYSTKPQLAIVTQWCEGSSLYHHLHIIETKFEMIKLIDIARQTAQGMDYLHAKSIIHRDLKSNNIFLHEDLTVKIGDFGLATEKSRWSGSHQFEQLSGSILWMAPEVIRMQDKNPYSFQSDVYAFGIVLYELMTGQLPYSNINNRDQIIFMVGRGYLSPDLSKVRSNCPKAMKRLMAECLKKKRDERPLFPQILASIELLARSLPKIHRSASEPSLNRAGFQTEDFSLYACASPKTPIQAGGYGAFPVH
- test.method.notes: Inhibition of recombinant human B-RAF V600E mutant using Ser/Thr3 as substrate after 1 hr by FRET-based Z'-Lyte assay
outcome.measure: IC50 (nM)

Solved entries (count: 3):
COc1n[nH]c2ncc(-c3cn(-c4c(F)ccc(NS(=O)(=O)c5ccc6ccccc6c5)c4F)nn3)cc12	856
COc1n[nH]c2ncc(-c3cn(-c4c(F)ccc(NC(=O)Cc5cccc(Cl)c5)c4F)nn3)cc12	83.1
COc1n[nH]c2ncc(-c3cn(-c4c(F)ccc(NS(=O)(=O)c5cccc(C(C)C)c5)c4F)nn3)cc12	190

[1] COc1n[nH]c2ncc(-c3cn(-c4c(F)ccc(NS(=O)(=O)c5cccc(C)c5)c4F)nn3)cc12
[2] COc1n[nH]c2ncc(-c3cn(-c4c(F)ccc(NS(=O)(=O)c5cccc(Cl)c5)c4F)nn3)cc12
Task: Of 1 and 2 , whose reported IC50 is numerically smaller? Choose, then provide that item's label.
Output: 2
(2: 198 nM, 1: 453 nM)

* * *

- test.method.notes: Half life in Sprague-Dawley rat at 2.5 mg/kg, iv by HPLC/MS analysis
- Type: ADME, organism-based
- test.parameters: in vivo
outcome.measure: half-life (h)
Enter your answer as a number in h; do not include the unit.

Task: // lookup half-life for COc1n[nH]c2ncc(-c3cn(-c4c(F)ccc(NS(=O)(=O)c5cccc(-c6ccccc6)c5)c4F)nn3)cc12
Output: 1.6

* * *

- study.system: Mitogen-activated protein kinase kinase kinase 20 (Homo sapiens, UniProt Q9NYL2)
- Sequence (Q9NYL2 whole entry): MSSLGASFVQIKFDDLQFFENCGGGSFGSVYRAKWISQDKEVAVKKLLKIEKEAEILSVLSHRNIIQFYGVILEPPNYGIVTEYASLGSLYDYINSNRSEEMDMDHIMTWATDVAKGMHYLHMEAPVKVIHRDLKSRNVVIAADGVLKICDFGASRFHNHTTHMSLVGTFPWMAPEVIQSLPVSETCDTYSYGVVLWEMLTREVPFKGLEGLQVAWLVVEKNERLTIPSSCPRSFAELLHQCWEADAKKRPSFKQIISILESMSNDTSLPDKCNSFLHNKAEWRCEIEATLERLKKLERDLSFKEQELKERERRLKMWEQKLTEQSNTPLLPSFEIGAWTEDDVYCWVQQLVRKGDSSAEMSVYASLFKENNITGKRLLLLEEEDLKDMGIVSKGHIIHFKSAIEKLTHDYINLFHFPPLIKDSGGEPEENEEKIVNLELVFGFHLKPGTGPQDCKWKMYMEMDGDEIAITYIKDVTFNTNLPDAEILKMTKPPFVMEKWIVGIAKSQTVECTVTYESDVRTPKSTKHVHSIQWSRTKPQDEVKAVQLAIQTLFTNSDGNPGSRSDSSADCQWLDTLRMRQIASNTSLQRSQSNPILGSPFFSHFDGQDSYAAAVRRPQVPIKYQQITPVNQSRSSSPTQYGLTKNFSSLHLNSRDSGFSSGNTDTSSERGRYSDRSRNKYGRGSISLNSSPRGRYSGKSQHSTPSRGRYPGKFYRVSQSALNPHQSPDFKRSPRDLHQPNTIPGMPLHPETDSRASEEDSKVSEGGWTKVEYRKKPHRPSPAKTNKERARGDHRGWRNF
- test.method.notes: Inhibition of N-terminal GST-tagged recombinant human full-length ZAK expressed in baculovirus infected Sf9 insect cells using MBP as substrate after 30 mins by ADP-Glo assay
pIC50: −log10 of the molar value.
outcome.measure: pIC50

Solved entries (count: 5):
COc1n[nH]c2ncc(-c3cn(-c4c(Cl)ccc(NS(=O)(=O)c5cccc(Cl)c5)c4Cl)nn3)cc12	6.38
COc1n[nH]c2ncc(-c3cn(-c4cc(NS(=O)(=O)c5cccc(Cl)c5)ccc4F)nn3)cc12	8.24
COc1cccc(S(=O)(=O)Nc2ccc(F)c(-n3cc(-c4cnc5[nH]nc(OC)c5c4)nn3)c2F)c1	8.64
COc1n[nH]c2ncc(-c3cn(-c4c(F)ccc(NS(=O)(=O)c5cccc(C#N)c5)c4F)nn3)cc12	8.48
COc1n[nH]c2ncc(-c3cn(-c4c(F)ccc(NS(=O)(=O)c5cccc(-c6ccccc6)c5)c4F)nn3)cc12	8.40

[I] COc1n[nH]c2ncc(-c3cn(-c4c(F)ccc(NS(=O)(=O)c5ccc6ccccc6c5)c4F)nn3)cc12
[II] COc1n[nH]c2ncc(-c3cn(-c4c(F)ccc(NS(=O)(=O)c5cccc(Cl)c5)c4F)nn3)cc12
Task: Of I and II , whose reported pIC50 is numerically smaller? Choose, then provide that item's label.
Output: I

[a] COc1n[nH]c2ncc(-c3ncc(-c4c(F)ccc(NS(=O)(=O)c5cccc(Cl)c5)c4F)[nH]3)cc12
[b] COc1n[nH]c2ncc(-c3cn(-c4c(F)ccc(NC(=O)Nc5cccc(Cl)c5)c4F)nn3)cc12
[c] COc1n[nH]c2ncc(C#Cc3c(F)ccc(NS(=O)(=O)c4cccc(Cl)c4)c3F)cc12
[d] Nc1ncc(-c2cn(-c3c(F)ccc(NS(=O)(=O)c4cccc(Cl)c4)c3F)nn2)cn1
Task: Ascending by pIC50, please. A ranking is expressed here by listing the labels in the requested order.
Output: a, b, c, d
(a: 6.01, b: 7.28, c: 7.83, d: 8.05)

[1] COc1n[nH]c2ncc(-c3cn(-c4c(F)ccc(NS(=O)(=O)c5ccccc5)c4F)nn3)cc12
[2] COc1n[nH]c2ncc(-c3nc(-c4c(F)ccc(NS(=O)(=O)c5cccc(Cl)c5)c4F)no3)cc12
Task: Of 1 and 2 , whose reported pIC50 is numerically smaller? Choose, then provide that item's label.
Output: 2
(2: 7.54, 1: 8.42)

[P] COc1n[nH]c2ncc(-c3cn(-c4c(F)ccc(NC(=O)Cc5cccc(Cl)c5)c4F)nn3)cc12
[Q] Nc1ccc(-c2cn(-c3c(F)ccc(NS(=O)(=O)c4cccc(Cl)c4)c3F)nn2)cn1
[R] COc1n[nH]c2ncc(-c3cn(-c4c(F)ccc(NS(=O)(=O)c5cccc(Br)c5)c4F)nn3)cc12
Task: Please give the order of these molecules when sorted by pIC50, largest value leading. A ranking is expressed here by listing the labels in the requested order.
Output: R, Q, P
(R: 8.68, Q: 7.34, P: 7.07)

* * *

- study.system: Mitogen-activated protein kinase kinase kinase 20 (Homo sapiens, UniProt Q9NYL2)
- test.method.notes: Binding affinity to ATP-binding site of human ZAK expressed in Escherichia coli by active site-dependent competition binding assay
outcome.measure: Kd (nM)
Enter your answer as a number in nM; do not include the unit.

Task: // lookup Kd for COc1n[nH]c2ncc(-c3cn(-c4c(F)ccc(NS(=O)(=O)c5cccc(-c6ccccc6)c5)c4F)nn3)cc12
Output: 8

* * *

- test.method.notes: Oral bioavailability in Sprague-Dawley rat at 10 mg/kg by HPLC/MS analysis
- Format: ADME, organism-based
- test.parameters: in vivo
outcome.measure: bioavailability (%)
Enter your answer as a number in %; do not include the unit.

Task: // lookup bioavailability for COc1n[nH]c2ncc(-c3cn(-c4c(F)ccc(NS(=O)(=O)c5cccc(-c6ccccc6)c5)c4F)nn3)cc12
Output: 65.3

* * *

- study.system: Receptor-type tyrosine-protein kinase FLT3 (Homo sapiens, UniProt P36888, F691L)
- Sequence (P36888 27-993 F691L limits assumed): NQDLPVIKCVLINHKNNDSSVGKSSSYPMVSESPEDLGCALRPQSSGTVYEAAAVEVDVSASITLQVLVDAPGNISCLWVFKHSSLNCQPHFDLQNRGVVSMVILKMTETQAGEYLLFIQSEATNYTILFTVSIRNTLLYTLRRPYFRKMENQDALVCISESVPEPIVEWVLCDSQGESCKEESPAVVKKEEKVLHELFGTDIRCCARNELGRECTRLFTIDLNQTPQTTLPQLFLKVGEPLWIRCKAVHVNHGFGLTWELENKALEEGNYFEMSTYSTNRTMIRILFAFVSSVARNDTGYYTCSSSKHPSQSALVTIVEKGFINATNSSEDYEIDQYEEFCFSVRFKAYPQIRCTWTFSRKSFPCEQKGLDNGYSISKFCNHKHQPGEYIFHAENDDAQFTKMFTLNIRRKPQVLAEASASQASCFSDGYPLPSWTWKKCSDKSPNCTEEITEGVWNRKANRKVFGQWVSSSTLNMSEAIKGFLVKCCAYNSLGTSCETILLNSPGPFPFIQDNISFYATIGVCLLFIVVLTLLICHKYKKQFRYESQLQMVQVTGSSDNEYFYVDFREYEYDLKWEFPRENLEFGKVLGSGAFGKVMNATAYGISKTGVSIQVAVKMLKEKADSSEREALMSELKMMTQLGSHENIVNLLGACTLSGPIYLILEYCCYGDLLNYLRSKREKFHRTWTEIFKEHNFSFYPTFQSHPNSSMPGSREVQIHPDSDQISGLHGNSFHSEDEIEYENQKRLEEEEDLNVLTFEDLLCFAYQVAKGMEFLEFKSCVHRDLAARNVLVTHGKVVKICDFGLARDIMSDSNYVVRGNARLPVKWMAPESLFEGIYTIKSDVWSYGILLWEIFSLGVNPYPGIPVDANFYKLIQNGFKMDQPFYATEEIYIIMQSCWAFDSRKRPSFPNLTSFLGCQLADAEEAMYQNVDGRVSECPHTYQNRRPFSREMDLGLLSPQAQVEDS
- test.method.notes: Binding affinity to human FLT3 F691L mutant
outcome.measure: Kd (nM)
Enter your answer as a number in nM; do not include the unit.

Task: // lookup Kd for COc1n[nH]c2ncc(-c3cn(-c4c(F)ccc(NS(=O)(=O)c5cccc(-c6ccccc6)c5)c4F)nn3)cc12
Output: 530

* * *

- study.system: LIM domain kinase 2 (Homo sapiens, UniProt P53671)
- Sequence (P53671 whole entry, the tested form may be a part): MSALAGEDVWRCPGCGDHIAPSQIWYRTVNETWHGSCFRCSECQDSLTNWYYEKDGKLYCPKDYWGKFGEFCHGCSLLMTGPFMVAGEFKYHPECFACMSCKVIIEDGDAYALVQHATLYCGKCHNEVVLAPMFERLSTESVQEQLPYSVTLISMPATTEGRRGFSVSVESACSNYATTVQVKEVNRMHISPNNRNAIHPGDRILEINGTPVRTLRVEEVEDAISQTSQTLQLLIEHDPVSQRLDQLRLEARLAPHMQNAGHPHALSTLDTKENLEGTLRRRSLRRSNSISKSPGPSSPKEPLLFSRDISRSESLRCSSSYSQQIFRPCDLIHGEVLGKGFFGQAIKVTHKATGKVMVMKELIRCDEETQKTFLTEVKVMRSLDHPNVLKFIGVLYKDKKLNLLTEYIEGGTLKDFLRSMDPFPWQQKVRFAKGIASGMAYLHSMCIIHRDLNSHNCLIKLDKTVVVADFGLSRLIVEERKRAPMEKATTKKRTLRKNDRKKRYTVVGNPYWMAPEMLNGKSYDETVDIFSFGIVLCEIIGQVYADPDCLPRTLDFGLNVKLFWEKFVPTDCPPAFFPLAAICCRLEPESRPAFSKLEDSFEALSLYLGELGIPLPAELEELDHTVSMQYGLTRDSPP
outcome.measure: pKd
pKd is defined as minus the log10 of a concentration measured in mol/L.

Task: // lookup pKd for COc1n[nH]c2ncc(-c3cn(-c4c(F)ccc(NS(=O)(=O)c5cccc(-c6ccccc6)c5)c4F)nn3)cc12
Output: 7.20

* * *

- test.method.notes: AUC (0 to infinity) in Sprague-Dawley rat at 10 mg/kg, po by HPLC/MS analysis
- Type: ADME, organism-based
- Design: dose 10 mg/kg, route oral, time infinity
- test.parameters: in vivo
outcome.measure: AUC(0-inf) (ng·h/mL)
Enter your answer as a number in ng·h/mL; do not include the unit.

Task: // lookup AUC(0-inf) for COc1n[nH]c2ncc(-c3cn(-c4c(F)ccc(NS(=O)(=O)c5cccc(-c6ccccc6)c5)c4F)nn3)cc12
Output: 71800

* * *

- study.system: Serine/threonine-protein kinase B-raf (Homo sapiens, UniProt P15056, V600E)
- test.method.notes: Inhibition of recombinant human B-RAF V600E mutant using Ser/Thr3 as substrate after 1 hr by FRET-based Z'-Lyte assay
pIC50: −log10 of the molar value.
outcome.measure: pIC50

[A] COc1n[nH]c2ncc(-c3cn(-c4c(Cl)ccc(NS(=O)(=O)c5cccc(Cl)c5)c4Cl)nn3)cc12
[B] COc1cccc(S(=O)(=O)Nc2ccc(F)c(-n3cc(-c4cnc5[nH]nc(OC)c5c4)nn3)c2F)c1
[C] COc1n[nH]c2ncc(-c3cn(-c4c(F)ccc(NC(=O)c5cccc(Cl)c5)c4F)nn3)cc12
[D] COc1n[nH]c2ncc(-c3cn(-c4c(F)ccc(NS(=O)(=O)c5ccccc5)c4F)nn3)cc12
[E] COc1n[nH]c2ncc(-c3cn(-c4c(F)ccc(NS(=O)(=O)c5cccc6ccccc56)c4F)nn3)cc12
Task: Would you mind ranking these compounds by ascending pIC50? A ranking is expressed here by listing the labels in the requested order.
Output: A, B, E, D, C
(A: 6.36, B: 6.57, E: 6.90, D: 7.41, C: 7.94)

[P] COc1n[nH]c2ncc(-c3cn(-c4cc(NS(=O)(=O)c5cccc(Cl)c5)ccc4F)nn3)cc12
[Q] COc1n[nH]c2ncc(-c3cn(-c4c(F)ccc(NC(=O)Nc5cccc(Cl)c5)c4F)nn3)cc12
[R] COc1n[nH]c2ncc(-c3cn(-c4cccc(NS(=O)(=O)c5cccc(Cl)c5)c4F)nn3)cc12
Task: Please give the order of these compounds when sorted by pIC50, largest value leading. A ranking is expressed here by listing the labels in the requested order.
Output: Q, P, R
(Q: 7.29, P: 6.48, R: 6.10)

[P] COc1n[nH]c2ncc(-c3cn(-c4c(F)ccc(NS(=O)(=O)c5cccc(C#N)c5)c4F)nn3)cc12
[Q] COc1n[nH]c2ncc(-c3cn(-c4c(F)ccc(NS(=O)(=O)c5cccc(Br)c5)c4F)nn3)cc12
Task: Which is greater in pIC50, the first item P or the second item Q ? Choose, then provide that item's label.
Output: Q
(Q: 6.56, P: 6.33)
